Origin of values: paper PMC10397247

Recorded interaction score by entry
- System Tested: T1, 4H3462-bN
- T1 chain: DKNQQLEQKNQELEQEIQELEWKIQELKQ
- Method: two-hybrid library CCNG1;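 further: natural log of median RNA to DNA barcode read ratio; higher means stronger binding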
In your answer, state the number alone without any accompanying words.

Binder	interaction score
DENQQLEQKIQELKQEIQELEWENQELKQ [4H1348-bN]	-0.171

// query interaction score value for entry DKNQQLEQENQELKQKIQELEWEIQELKQ [4H3298-bN]
-0.0887

Returns the measured interaction score for the input binder. Input: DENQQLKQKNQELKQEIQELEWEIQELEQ [4H1985-bN]
-1.4

Look at this binder and give its reported interaction score. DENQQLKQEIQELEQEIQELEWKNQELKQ [4H1544-bN]
1.08

Please give the measured interaction score for this binder: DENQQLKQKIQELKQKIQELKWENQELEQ [4H1899-bN]
-2.27
